All figures here come from patent US20240109974A1.

Below is a list of entries, each paired with its recorded IC50 value.
Biological target: T1, human TNFR2 on the surface of CHO-TNFR2 cells (human, UniProt P20333 23-461)
T1 construct: whole, on cells
T1 sequence (looked up): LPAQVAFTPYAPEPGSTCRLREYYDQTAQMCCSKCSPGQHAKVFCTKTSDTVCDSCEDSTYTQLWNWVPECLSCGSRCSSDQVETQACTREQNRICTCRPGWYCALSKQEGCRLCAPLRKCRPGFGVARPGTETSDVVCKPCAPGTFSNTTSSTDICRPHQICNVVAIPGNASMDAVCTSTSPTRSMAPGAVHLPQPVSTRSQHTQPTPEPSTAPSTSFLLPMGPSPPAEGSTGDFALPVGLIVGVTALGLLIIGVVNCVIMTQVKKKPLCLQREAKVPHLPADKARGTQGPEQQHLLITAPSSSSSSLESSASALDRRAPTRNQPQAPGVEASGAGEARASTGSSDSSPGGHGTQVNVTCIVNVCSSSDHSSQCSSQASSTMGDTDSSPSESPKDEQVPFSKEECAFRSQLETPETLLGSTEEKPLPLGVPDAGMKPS
Assay: competition flow cytometry on CHO-TNFR2 cells, competitor human TNFα-biotin
Observation type: IC50

[
  {
    "Binder": "224-Hu3 (antibody, V domains shown, Humanized form of #224; also called VH9 + VL8) VH: QVQLVQSGSELKKPGASVKVSCKASGFNNKDIYMHWVRQAPGQGLEWMGRIDPATGNTKHDPKFQDKAVLSSDTSVSTAYLQISSLKAEDTAVYYCARSPYGDFGAMDYWGQGTLVTVSS VL: DIQMTQSPSSLSASVGDRVTITCTASSSVSSNYLHWYQQKPGKAPKLLIYSTSNLPSGVPSRFSGSGSGTDFTLTISSLQAEDAATYYCHQYHRSPWTFGQGTKVEIK",
    "Observation type": "IC50",
    "Measured result": "0.044 µg/mL"
  },
  {
    "Binder": "001-Hu4 (antibody, V domains shown, Humanized form of #001; also called VH2 + VL4) VH: EVQLVESGGGLVQPGGSLRLSCAASGFAFSTYDLSWVRQAPGKGLEWVAYINNGGISTYYSDTVKGRFTISRDNAKNSLYLQMNSLRAEDTAVYYCVRGPFYGSANYFDYWGQGTLVTVSS VL: DIQMTQSPSSLSASVGDRVTITCRTSESIYSNLPWYQQKPGKSPKLLVYDATKLAEGVPSRFSGSGSGTDYTLTISSLQPEDFATYYCQHFWVTPWTFGQGTKVEIK",
    "Observation type": "IC50",
    "Measured result": "0.087 µg/mL"
  }
]
